Target: T1, orthogonal hCD122 receptor (hoRb), hCD122 with H133D and Y134F (human, UniProt P14784 27-550); note: reference of the scale not given here
T1 sequence: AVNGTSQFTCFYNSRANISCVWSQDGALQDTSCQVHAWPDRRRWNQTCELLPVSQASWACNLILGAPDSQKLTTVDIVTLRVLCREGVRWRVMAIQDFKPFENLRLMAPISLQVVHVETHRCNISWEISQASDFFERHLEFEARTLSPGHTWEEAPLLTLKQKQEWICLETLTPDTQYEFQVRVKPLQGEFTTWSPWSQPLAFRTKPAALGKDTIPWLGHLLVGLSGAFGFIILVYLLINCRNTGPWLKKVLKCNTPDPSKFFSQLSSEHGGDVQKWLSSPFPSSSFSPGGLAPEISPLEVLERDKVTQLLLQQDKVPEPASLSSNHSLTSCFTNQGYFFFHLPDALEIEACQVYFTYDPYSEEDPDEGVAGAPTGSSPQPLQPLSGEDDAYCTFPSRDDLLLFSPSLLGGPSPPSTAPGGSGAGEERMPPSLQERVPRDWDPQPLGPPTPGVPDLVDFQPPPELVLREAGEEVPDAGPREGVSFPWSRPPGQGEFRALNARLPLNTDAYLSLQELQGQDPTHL
Assay: cell-based or functional assay
Threshold rule: Relative Proliferation Fold Change 3F8 1:2 greater than or equal to 50 fold is Yes; below that, No.

- Binder: "SQVLKS (ligand) APTSSSTKKTQLQLSQLLVLLKSILNGINNYKNPKLTRMLTFKFYMPKKATELKHLQCLEEELKPLEEVLNLAQSKNFHLRPRDLISNINVIVLELKGSETTFMCEYADETATIVEFLNRWITFCQSIISTLT"
  Group Label: "Yes"
- Binder: "T113N, SQVLKA (ligand) APTSSSTKKTQLQLSQLLVLLKAILNGINNYKNPKLTRMLTFKFYMPKKATELKHLQCLEEELKPLEEVLNLAQSKNFHLRPRDLISNINVIVLELKGSETTFMCEYADETANIVEFLNRWITFCQSIISTLT"
  Group Label: "No"
- Binder: "SQVLKH (ligand) APTSSSTKKTQLQLSQLLVLLKHILNGINNYKNPKLTRMLTFKFYMPKKATELKHLQCLEEELKPLEEVLNLAQSKNFHLRPRDLISNINVIVLELKGSETTFMCEYADETATIVEFLNRWITFCQSIISTLT"
  Group Label: "No"
- Binder: "Q126H, SQVLKA (ligand) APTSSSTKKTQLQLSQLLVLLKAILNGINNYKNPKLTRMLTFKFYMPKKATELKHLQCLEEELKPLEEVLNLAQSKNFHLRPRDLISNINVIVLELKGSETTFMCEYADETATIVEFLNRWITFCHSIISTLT"
  Group Label: "Yes"
- Binder: "ΔR81, SQVLKA (ligand) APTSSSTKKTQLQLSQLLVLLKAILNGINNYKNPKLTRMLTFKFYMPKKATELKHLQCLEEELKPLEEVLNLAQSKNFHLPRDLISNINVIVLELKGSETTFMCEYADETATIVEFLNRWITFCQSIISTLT"
  Group Label: "No"
- Binder: "T3E, SQVLKA (ligand) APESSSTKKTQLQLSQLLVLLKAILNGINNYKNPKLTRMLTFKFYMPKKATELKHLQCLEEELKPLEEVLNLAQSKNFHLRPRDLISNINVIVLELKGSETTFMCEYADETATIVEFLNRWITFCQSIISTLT"
  Group Label: "No"
- Binder: "C125S, SQVLKA (ligand) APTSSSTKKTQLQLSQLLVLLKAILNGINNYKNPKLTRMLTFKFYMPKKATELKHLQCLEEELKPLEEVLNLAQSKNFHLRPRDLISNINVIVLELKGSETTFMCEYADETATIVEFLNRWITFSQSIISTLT"
  Group Label: "Yes"
